assay comment: blood and brain drug concentrations in satellite animals
Type: in vivo, rat
cond: CD, rat, brain, intraperitoneal, ENK6 30 mg/kg + ENa7 1 mg/kg; n = 2; read-out: Brain ENK6
Structures can show the parent of a compound that is named as a salt.
assay metric: concentration at 60 min (ng/g)
Write the number in ng/g without appending the unit.

Quick one: give measured concentration at 60 min for COc1ccc(-n2nnnc2C(F)(F)F)cc1CN[C@H]1CCCN[C@H]1c1ccccc1 [ENK6, dihydrochloride] 1040
